# assay-info: p53 small molecule agonists, cell-based qHTS assay with rat liver microsomes: qHTS cell viability counter screen (AID 1963580); note: potency is the fitted concentration of half-maximal effect; nearly all actives have a fitted effect of over 45% in size
# run-parameters: p53RE-bla HCT-116 + rat microsomes, ATP viability, 16 h; series mostly up to 66 µM
Records with an inconclusive call do not appear. Calls of active or inactive are those of the source. Calls come from the whole dose curve.
Record form. Attribute: Potency. Fill in for each entry.

> print(dat)
                                   molecule  recorded.endpoint            result
1  CN(C[C@@H](CC[N+]12CCC(C3CCCCC3)(CC1)CC2)c1ccc(Cl)c(Cl)c1)C(=O)c1cc(C(F)(F)F)cc(C(F)(F)F)c1            Potency  40.8 µM (active)
2            Cc1cc(O)c(C(C)(C)C)cc1C(C)(C)C            Potency  40.8 µM (active)
3  Cc1oc(-c2ccccc2)nc1CCOc1ccc(C[C@H](Nc2ccccc2C(=O)c2ccccc2)C(=O)O)cc1            Potency  45.8 µM (active)
4                   CCCCCCCCCCCCc1ccc(O)cc1            Potency  40.8 µM (active)
5  C/C=C/C(=O)Oc1c(CCCCCC(C)C)cc([N+](=O)[O-])cc1[N+](=O)[O-]            Potency  40.8 µM (active)

For each listed entry, give its Potency.
1. C=C(C)C1CCC(C)CC1O (stereo not given)
2. O=S1(=O)CC(Cl)(Cl)C(Cl)(Cl)C1
3. CCCCCCCC/C=C\CCCCCCCCOCCO

["1.62 µM (active)", "18.2 µM (active)", "53 µM (active)"]

For each listed entry, give its Potency.
1. CCCCCCCC[N+](CCCCCCCC)(CCCCCCCC)CCCCCCCC
2. CCCCCCCCCCn1cc[n+](CCCCCCCCCC)c1C

1: 16.2 µM (active); 2: 32.4 µM (active)

---

# assay-info: p53 small molecule agonists, cell-based qHTS assay: qHTS cell viability counter screen (AID 1963581); note: potency is the fitted concentration of half-maximal effect; nearly all actives have a fitted effect of over 45% in size
# run-parameters: p53RE-bla HCT-116 viability, ATP luminescence, 16 h; series mostly up to 66 µM
Results filed as inconclusive are left out. Calls of active or inactive are those of the source. The call rests on the fitted dose curve.
recorded-endpoint: Potency

For each listed entry, give its Potency.
1. Cc1cc(F)ccc1-c1cc(N2CC[C@@H](O)[C@H]2CO)ncc1N(C)C(=O)C(C)(C)c1cc(C(F)(F)F)cc(C(F)(F)F)c1
2. CCN(CC)c1ccc(C(=C2C=CC(=[N+](CC)CC)C=C2)c2ccc(S(=O)(=O)O)cc2S(=O)(=O)[O-])cc1
3. CCCN(CCC)c1c([N+](=O)[O-])cc(C(F)(F)F)c(N)c1[N+](=O)[O-]
4. CC(C)C[C@H](NC(=O)[C@H](CCc1ccccc1)NC(=O)CN1CCOCC1)C(=O)N[C@@H](Cc1ccccc1)C(=O)N[C@@H](CC(C)C)C(=O)[C@@]1(C)CO1

1. 16 µM (active)
2. 9.13 µM (active)
3. 18.2 µM (active)
4. 0.63 µM (active)

---

# assay-info: Nuclear factor erythroid 2-related factor 2/antioxidant responsive element (Nrf2/ARE) small molecule agonists: qHTS cell viability counter screen in human keratinocytes (AID 1919968); note: nearly all actives have a fitted effect of over 55% in size
# run-parameters: KeratinoSens HaCaT ARE cells viability, CellTiter-Fluor, 24 h; series mostly up to 92.4 µM
Results filed as inconclusive are left out. Activity calls are given as the source filed them. Calls follow the shape of the dose curve; as a rule, active = well fitted cell-killing curve with a large enough effect in the repeat runs; inconclusive = weak or mixed curves, or effect the other way; inactive = flat fitted curve, though single readings scatter.
// allowed return values: Y = active, N = inactive

Given `CCCCCCCC` , state the outcome it received in this test.
N
